Overview of reported mean cytoplasmic OPP incorporation across a group of molecules:
system: U2OS; assay: mean cytoplasmic OPP incorporation (global translation) relative to DMSO (% of DMSO); higher = more protein synthesis; details: 10 µM; 24 h
In all, about 3,100 compounds were measured (“mean cytoplasmic OPP incorporation (global translation) relative to DMSO”: median about 100, lowest 2% from about 56 on). This is one part of a sample in which the lowest values are shown more often than they occur.
The answer should be a number; do not append a unit.

Below: 4 molecules and their reported mean cytoplasmic OPP incorporation.
>  <Molecule>
CSCC[C@H](NC=O)C(=O)N[C@@H](CC(=O)O)C(=O)NCC(=O)N[C@@H](CS)C(=O)N[C@@H](CCC(=O)O)C(=O)N[C@@H](CC(C)C)C(=O)O

>  <Target Desc>
U2OS

>  <mean cytoplasmic OPP incorporation>
103

$$$$
>  <Molecule>
CC(CCCCC(=O)Nc1ccc(C(F)(F)F)cc1)NCCc1cnc[nH]1 (stereo not given) [HTMT dimaleate]

>  <Target Desc>
U2OS

>  <mean cytoplasmic OPP incorporation>
100

$$$$
>  <Molecule>
N[C@@H](Cc1cc(I)c(O)c(I)c1)C(=O)O [3,5-Diiodo-L-tyrosine]

>  <Target Desc>
U2OS

>  <mean cytoplasmic OPP incorporation>
100

$$$$
>  <Molecule>
C[C@@H](NCc1cc(Br)cc2[nH]c(=O)c(=O)[nH]c12)P(=O)(O)O

>  <Target Desc>
U2OS

>  <mean cytoplasmic OPP incorporation>
96.4

$$$$

query: Request: mean cytoplasmic OPP incorporation, test system U2OS, entry Cc1ccc(NC(=O)C(C)C)cc1C1CCN(Cc2ccc(Oc3ccc(F)c(F)c3)cc2)CC1
result: 108
